# assay_remarks: log P determination by HPLC on reversed-phase columns (C 18), analogously to OECD Guideline 117
# Format: physicochemical
# measurement_conditions: LC-MS in the acidic range, pH 2.7, 0.1% aqueous formic acid / acetonitrile, HPLC reversed-phase C 18
# Procedure: The log P values were determined analogously to OECD Guideline 117 (EC Directive 92/69/EEC) by HPLC (high-performance liquid chromatography) using reversed-phase columns (C 18), by the following methods: [a] The LC-MS determination in the acidic range was effected at pH 2.7 with 0.1% aqueous formic acid and acetonitrile (contains 0.1% formic acid) as eluents; linear gradient from 10% acetonitrile to 95% acetonitrile. log P^[a] is also referred to as log P(HCOOH). [b] […]
Use 3 as the dividing line for logP (HCOOH), with the line itself on the label 1 side and lower values as label 0.

Completed entries (count: 3):
| compound | class_label |
| --- | --- |
| Cc1ccc(-n2c(=O)n(C)c(=O)n2-c2ccc(C)c(SCC(F)(F)F)c2)cc1SCC(F)(F)F [Example 56] | label 1 |
| Cc1cc(F)c(N2C(=O)OC(C)C2=O)cc1[S+]([O-])CC(F)(F)F (stereo not shown) [Example 206] | label 0 |
| Cc1cc(F)c(N2C(=O)CN(Cc3ccccc3)C2=O)cc1SCC(F)(F)F [Example 204] | label 1 |

Answer whether logP (HCOOH) of Cc1cc(C)c(N2C(=O)C(=O)N(CC(F)(F)F)C2=S)cc1SCC(F)(F)F [Example 187] is greater than or equal to 3.
label 1

Can Cc1cc(F)c(N2CCN(C)C2=O)cc1SCC(F)(F)F [Example 198] be said to have logP (HCOOH) at or above 3?
label 0

Does logP (HCOOH) meet or surpass 3 for Cn1c(=O)n(C2CC2)c(=O)n1-c1ccc(C#N)c(SCC(F)(F)F)c1 [Example 44] ?
label 0

Determine whether this compound has logP (HCOOH) no lower than 3: Cc1cc(F)c(-n2c(=O)n(CC3CC3)c(=O)n2C)cc1[S+]([O-])CC(F)(F)F (stereo not shown) [Example 169]
label 0

Does logP (HCOOH) meet or surpass 3 for Cc1cc(F)c(N2C(=O)C(=O)N(CC(C)C)C2=S)cc1[S+]([O-])CC(F)(F)F (stereo not shown) [Example 194] ?
label 1

Exam item: decide whether the reported logP (HCOOH) for Cc1ccc(-n2c(=O)n(C(C)(C)C)c(=O)n2C(C)C)cc1SCC(F)(F)F [Example 135] is at least 3.
label 1

---

# assay_remarks: log P determination by HPLC on reversed-phase columns (C 18), analogously to OECD Guideline 117
# Type: physicochemical
# measurement_conditions: LC-MS in the acidic range, pH 2.7, 0.1% aqueous formic acid / acetonitrile, HPLC reversed-phase C 18
Entries and their logP (HCOOH)
Answer with a bare number; do not write a unit.

| compound | logP (HCOOH) |
| --- | --- |
| Cc1cc(F)c(-n2c(=O)n(C(C)(C)C)c(=O)n2C)cc1[S+]([O-])CC(F)(F)F (centres unmarked) | 2.69 |
| COc1ccc(-n2c(=O)n(C)c(=O)n2C)cc1[S+]([O-])CC(F)(F)F (centres unmarked) | 1.58 |
| Cc1cc(F)c(N2CC(=O)N(C)C2=O)cc1SCC(F)(F)F | 2.66 |
| CCn1c(=O)n(C2CC2)c(=O)n1-c1cc([S+]([O-])CC(F)(F)F)c(C)cc1F (centres unmarked) | 2.18 |
| Cc1cc(F)c(-n2c(=O)n(C(C)C)c(=O)n2CC(F)(F)F)cc1[S+]([O-])CC(F)(F)F (racemic) | 2.95 |
| Cc1cc(F)c(-n2c(=O)n(-c3ccccc3)c(=O)n2CC(F)(F)F)cc1SCC(F)(F)F | 3.93 |
| C=CCn1c(=O)n(-c2cc([S+]([O-])CC(F)(F)F)c(C)cc2F)c(=O)n1CC=C (racemic) | 2.46 |
| Cc1cc(F)c(-n2c(=O)n(C)n(CC3CC3)c2=O)cc1SCC(F)(F)F | 3.15 |

In one line, give reported logP (HCOOH) of the entry Cc1ccc(-n2c(=O)n(C(C)(C)C)c(=O)n2C)cc1[S+]([O-])CC(F)(F)F (centres unmarked) .
2.71

Give the reported value of logP (HCOOH) for this record: C=CCn1c(=O)n(C)c(=O)n1-c1ccc(C)c([S+]([O-])CC(F)(F)F)c1 (centres unmarked)
2.03

# return recorded logP (HCOOH) for entry "CCn1c(=O)n(C)c(=O)n1-c1ccc(C)c(SCC(F)(F)F)c1"
2.82

Output measured logP (HCOOH) for this item: Cc1cc(F)c(-n2c(=O)n(-c3ccccc3)c(=O)n2C)cc1[S+]([O-])CC(F)(F)F (centres unmarked)
2.44

Assign logP (HCOOH) to the following record: "Cc1cc(F)c(-n2c(=O)n(C(C)(C)C)c(=O)n2CC(F)(F)F)cc1SCC(F)(F)F"
4.34

Given "Cc1cc(F)c(-n2c(=O)n(C(C)C)c(=O)n2CC(F)(F)F)cc1SCC(F)(F)F" , respond with its logP (HCOOH).
3.85
